System: Coagulation factor X (Homo sapiens, UniProt P00742) | Read-out: pIC50
Sequence (P00742 41-179 limits assumed): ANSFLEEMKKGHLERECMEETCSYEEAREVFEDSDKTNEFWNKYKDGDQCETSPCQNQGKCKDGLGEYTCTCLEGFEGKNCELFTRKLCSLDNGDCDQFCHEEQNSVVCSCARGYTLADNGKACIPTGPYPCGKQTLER
Sequence (P00742 235-488 limits assumed): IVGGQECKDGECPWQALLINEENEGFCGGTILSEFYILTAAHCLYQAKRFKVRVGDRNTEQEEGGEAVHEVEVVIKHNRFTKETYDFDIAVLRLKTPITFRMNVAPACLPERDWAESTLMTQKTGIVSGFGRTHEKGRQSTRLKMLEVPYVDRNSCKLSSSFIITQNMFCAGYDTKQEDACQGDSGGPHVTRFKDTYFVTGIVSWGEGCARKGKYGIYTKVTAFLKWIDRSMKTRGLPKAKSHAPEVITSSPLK
API: returns pIC50 as number; meaning -log10 of concentration in mol/L.

Q: GET /values?readout=pIC50&system=Coagulation factor X (Homo sapiens, UniProt P00742)&item= C/C(=C(\F)C(=O)Nc1ccc(-c2ccccc2S(N)(=O)=O)cn1)c1ccc2ccnc(N)c2c1
Ans: 7.85

Q: GET /values?readout=pIC50&system=Coagulation factor X (Homo sapiens, UniProt P00742)&item= C/C(Cc1ccc(Br)cc1)=C(\F)C(=O)Nc1ccc(-c2ccccc2S(N)(=O)=O)cc1
Ans: 5.74

Q: GET /values?readout=pIC50&system=Coagulation factor X (Homo sapiens, UniProt P00742)&item= C/C(=C(\F)C(=O)Nc1ccc(-c2ccccc2C#N)cc1)c1ccc2ccnc(N)c2c1
Ans: 6.72

Every entry's value here was drawn from ChEMBL document CHEMBL1134849.
